Provide the reported Kd of each item.
Target: SARS-CoV-2 PLpro (Severe acute respiratory syndrome coronavirus 2)
Assay: biochemical
Type: binding
Settings: KD Exp1, SARS-CoV-2 PLpro WT
The reply should contain only the number, in nM.

Item under review: COc1cc(CNC(=O)C2CCN(C(C)c3ccc(OC)c4ccccc34)CC2)ccn1 (stereo not drawn) . Reported Kd?
1420

Item COc1cc(CNC(=O)C2CCN([C@H](C)c3cccc4ccccc34)CC2)ccn1 has what recorded Kd?
4110

Find the recorded Kd belonging to C[C@H](c1cccc2ccccc12)N1CCC(C(=O)NCc2cccc(F)c2)CC1 and report it.
2000

* * *

Experiment: in vitro
Conditions: human, microsomes, pH 7.4
I'd be grateful if you could share measured microsomal CLint for these entries.
Give the value in µL/min/mg but do not write µL/min/mg after it.

Fill in the blank: the reported microsomal CLint of COc1cc(CNC(=O)C2CCN([C@H](C)c3cccc4ccccc34)CC2)ccn1 is ____.
110

I am curious: what microsomal CLint value has been reported for C[C@H](c1cccc2ccccc12)N1CCC(C(=O)NCc2cccc(F)c2)CC1 ?
247

# get_value(readout='microsomal CLint', item= COc1cc(CNC(=O)C2CCN(C(C)c3ccc(OC)c4ccccc34)CC2)ccn1 (stereo not drawn) )
45

* * *

Provide the recorded microsomal CLint for the entries that follow.
Assay: in vitro
Conditions: mouse, microsomes, pH 7.4
The answer is to be given in µL/min/mg; state only the numeric part.

Which microsomal CLint is listed for COc1cc(CNC(=O)C2CCN([C@H](C)c3cccc4ccccc34)CC2)ccn1 [Compound 5c] ?
86

Requested field: microsomal CLint. Item: COc1cc(CNC(=O)C2CCN(C(C)c3ccc(OC)c4ccccc34)CC2)ccn1 (stereo not drawn) [Compound 9]
50

Param item = C[C@H](c1cccc2ccccc12)N1CCC(C(=O)NCc2cccc(F)c2)CC1 [Compound 3k] ; retrieve measured microsomal CLint.
337

* * *

Biological target: SARS-CoV PLpro (Severe acute respiratory syndrome coronavirus)
Assay: biochemical
Type: binding
Conditions: KD Exp1, SARS-CoV
attribute.measured: pKd
Scale note: pKd = -log10(concentration in M).

# lookup: pKd of COc1cc(CNC(=O)C2CCN(C(C)c3ccc(OC)c4ccccc34)CC2)ccn1 (stereo not drawn) [Compound 9]
6.09

Look up pKd: C[C@H](c1cccc2ccccc12)N1CCC(C(=O)NCc2cccc(F)c2)CC1 [Compound 3k]
6.18

Form field: reported pKd of COc1cc(CNC(=O)C2CCN([C@H](C)c3cccc4ccccc34)CC2)ccn1 [Compound 5c]
6.08
